This listing pairs molecules with measured composite z-score.
- assay-protocol: COS7 lysate on small-molecule microarray, probe aHis, 635 nm (AID 1123);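 note: z-score combines 667nm fluorescence intensity with signal-to-noise per printed compound spot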
- experimental-context: COS7 cell lysate, fluorescence, higher = more signal
// no unit, no text: just the number

Some solved cases for reference:
C=CCC(OC(C)=O)[C@@H]1[C@@H](N(Cc2cccc3ccccc23)C(=O)c2ccc(C)cc2)c2cc(OCCCO)ccc2N1C(=O)Cc1ccc2ccccc2c1 (stereo not given in full) = 0.738
C=C(C(=O)CC[C@@H](OC(=O)c1ccccc1-c1ccccc1C(=O)O)c1ccc(OCCO)cc1)C(C)C = 0.393
COC(=O)C1(CC(C)C)C=C2C(=C(C)C(=O)C2C)CN1 (stereo not given) = 1.63
CC[C@@H](O[Si](C#C[Si](C(C)C)(C(C)C)C(C)C)(C(C)C)C(C)C)c1cn(Cc2cccc(Cl)c2)nn1 = 0.233

Now for the molecule whose composite z-score we want.
[in] Please look up its composite z-score: CCCCC(=C=CC[C@@H](O)c1ccccc1OCCO)C[C@@H](O)c1ccccn1
[out] 0.522

----------
Listed below: composite z-score values for each entry.
- Tested on: Neuregulin-1 EGF-like domain
- assay-protocol: binders of neuregulin-1 EGF-like domain, primary screen, biochemical, small-molecule microarray, 635 nm fluorescence (AID 1081);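 note: binding of the protein to compounds printed on small-molecule microarray slides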
- experimental-context: small-molecule microarray binding, higher = more signal
Enter the number alone.

[in] What does the record list as composite z-score for CCc1cccc(NC(=O)O[C@H]2[C@H](OC(=O)Nc3ccccc3-c3ccccc3)[C@H](OC(=O)Nc3ccccc3-c3ccccc3)[C@@H](OC)O[C@@H]2CO)c1 ?
[out] 1.11

[in] Recorded composite z-score of C=C(C)C1CN([C@H](CO)c2ccccc2)C(=O)/C1=C\c1ccccc1 (stereo not given in full) , please.
[out] 0.465

[in] Which composite z-score value belongs to CCCCC(=C=CC[C@@H](O)c1ccc(OCCO)cc1)CCO ?
[out] 0.922

[in] Query (compound): CC[C@@H]1C=C(C(=O)O)[C@H](c2cccc(Cl)c2)N1S(=O)(=O)c1ccc(C)cc1 ; field requested: composite z-score
[out] 0.855

[in] Return reported composite z-score; argument: COc1ccc([Si](C)(C)[C@@H]2[C@@H](CC(=O)N3CCC[C@H]3CO)O[C@]3(C(=O)N(Cc4cccc(N5C(=O)c6cccc7cccc5c67)c4)c4ccccc43)[C@H]2C)cc1
[out] 1.06

----------
- assay-protocol: HepG2 cell viability effects, profiling panel, calcein-AM fluorescence, 48 h, basal (AID 1164); note: test concentration not given here
- experimental-context: higher = more signal
Here, each record is paired with measured z-score data.
Answer with a bare number; do not write a unit.

Cc1ccc(S[C@]2(C(=O)NCc3ccccc3)CC(=O)N(Cc3ccccc3Cl)[C@@H]2c2ccc(CO)cc2)cc1 = 0.191
COc1cccc(C)c1NC(=O)O[C@H]1[C@H](OC(=O)Nc2ccccc2)[C@@H](OC(=O)Nc2ccccc2)[C@@H](OC)O[C@@H]1CO = -1.9
COC(=O)[C@@]1(Cc2ccc(OC)cc2)[C@@H]2[C@@H](CC(=O)[C@H]2CC(=O)C(=O)N(C)C)CN1C(=O)c1ccccc1 = -0.923
C=C(C(=O)CC[C@@H](OC(=O)c1ccccc1-c1ccccc1C(=O)O)c1ccc(CO)o1)C(C)C = 0.473
C=CC[C@H](O)c1ccc(O)c2ccccc12 = -0.817
C=C(CCCC)C(=O)CC[C@H](OC(=O)c1ccccc1-c1ccccc1C(=O)O)c1cccc(OCCO)c1 = -0.73
C#CCN(C(=O)OC(C)(C)C)[C@H](CO)c1ccccc1 = -1.51
COc1ccc(C(O)C2C=CC3C(=O)N(C)C(=O)C3N2Nc2ccccc2)cc1 (configuration not stated) = -0.393
CCCCCN1CC=CC23O[C@@H]4/C=C\CCCOC(=O)C4[C@H]2C(=O)N(CCCCCO)[C@@H]3C1=O (some centres not stated) = -0.216
[N-]=[N+]=Nc1ccccc1C[C@]1(C(=O)N2CCCCC2)N=C(c2ccc(OCCCO)cc2)O[C@H]1c1ccccc1 = 0.014

[in] # lookup: z-score of CCCC=C(CCC)[C@@H](NC(=O)c1ccc(C(=O)OC)cc1)c1ccc(C(=O)OC)cc1
[out] -1.54

[in] Fill in: z-score of O=C1NC(=O)C2C1C=CC(C(O)c1ccc(F)cc1)N2Nc1ccc(Cl)cc1Cl (configuration not stated) is ___
[out] -3.57

[in] Fill in: z-score of COc1c(C)cc(-c2cc3c(c(CCc4ccccc4)n2)[Si](C(C)C)(C(C)C)O[C@H]3c2ccccc2)cc1C is ___
[out] 0.297

[in] Suppose we examine the molecule Cc1ccc(S[C@]2(C(=O)NCC(C)C)CC(=O)N(C(C)C)[C@@H]2c2ccc(CO)cc2I)cc1 ; what z-score value has been reported?
[out] 0.867

[in] Name the reported z-score value associated with the molecule CN(C)CCCCCCNC(=O)[C@@H]1C[C@@H]2C(=O)N[C@@H](CCCC[N+](C)(C)C)C(=O)N2[C@@H]1c1cccc(OCCO)c1
[out] 0.413

[in] Please give the measured z-score for this molecule: C=CCNC(=O)[C@@H]1[C@H]2C(=O)O[C@H](c3ccccc3)[C@H](c3ccccc3)N2[C@H](c2ccc(O)cc2)[C@@]12C(=O)Nc1ccc(C#CC3=CCCCC3)cc12
[out] -3.89

----------
- Test system: wheat germ agglutinin (Triticum aestivum), Alexa647-labelled
- assay-protocol: wheat germ agglutinin binders on compound microarrays, profiling panel, artefact control for SMM control-protein annotation, biochemical, small-molecule microarray, 635/667 nm fluorescence (AID 1140);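 note: score merges 667 nm feature emission with signal to noise over triplicate slides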
- experimental-context: WGA-A647 binding, 635 nm fluorescence, higher = more signal
# composite z-score >= 0.3 gives label 1, anything below gives label 0

O=C1c2ccccc2[C@](Cc2ccccc2I)(C(=O)NCCN2CCOCC2)[C@H](c2ccc(CO)cc2)N1Cc1ccccc1C(F)(F)F = label 1
O=C1NC(=O)C2C1C=CC(C(O)C(O)CO)N2Nc1ccccn1 (stereo unspecified) = label 1
COCCCNC(=O)[C@@]1(Cc2ccccc2I)c2ccccc2C(=O)N(Cc2ccccc2OC)[C@H]1c1ccc(CO)cc1 = label 0
CCCN1C(=O)[C@@]2(c3ccc([N+](=O)[O-])cc3)CC(=O)N(C3CCCCC3)[C@@H]2c2ccc(CO)cc21 = label 0
COCCOC(=O)N1C(=O)[C@@]2(c3cc(C#CCC(C(=O)OC)C(=O)OC)ccc31)[C@H](c1ccc(O)cc1)N1[C@H](c3ccccc3)[C@H](c3ccccc3)OC(=O)[C@H]1[C@@H]2C(=O)N1CCc2cc(OC)c(OC)cc2C1 = label 1

[in] Identify whether the reported composite z-score of the following molecule is 0.3 or greater: COC(=O)[C@@]1(Cc2ccc(F)cc2)[C@H]2c3cc(C(=O)N4CCCC4)n(Cc4ccc(OC(F)(F)F)cc4)c3C[C@H]2CN1C(=O)c1ccccc1
[out] label 0

[in] Check the entry CN(C)C(=O)[C@]1(CCS(=O)(=O)c2ccccc2)N=C(c2ccc(OCCCO)cc2)O[C@@H]1c1ccccc1CN=[N+]=[N-] : does composite z-score equal or exceed 0.3?
[out] label 1

[in] Answer whether composite z-score of O=C1OC[C@@H](c2ccccc2)n2cc(/C=C/c3ccccc3)cc21 is greater than or equal to 0.3.
[out] label 0

[in] Say whether CC(C)C[C@H]1NC(=O)CNC(=O)[C@@]23C(=O)N[C@@H](Cc4ccccc4)C2[C@H](C)[C@@]2(C)O[C@H]2C3/C=C/C/C=C\CNC1=O (stereo partly specified) shows composite z-score of 0.3 or more.
[out] label 1

----------
- measurement-target: Dickkopf-related protein 1 (Homo sapiens)
- assay-protocol: DKK1 binders on small-molecule microarrays, primary screen, biochemical, small-molecule microarray, 635 nm fluorescence scan (AID 1106);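 note: score merges emission near 667 nm with signal to noise over three replicate slides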
- experimental-context: DKK1 binding, higher = more signal
observation-type: composite z-score
Keep it simple and answer with nothing but the number.

The following molecules have reported results that may help.
CO[C@H]1O[C@H](CO)[C@@H](OC(=O)Nc2cccc(F)c2)[C@H](OC(=O)c2cc3ccccc3[nH]2)[C@H]1OC(=O)c1cc2ccccc2[nH]1 = 0.135
Cc1ccc(S[C@]2(C(=O)NC(C)C)CC(=O)N(Cc3ccccc3)[C@@H]2c2ccc(CO)cc2I)cc1 = -2.57
Cc1ccc(S[C@]2(C(=O)NCc3ccccc3)CC(=O)N(Cc3ccccc3Cl)[C@@H]2c2ccc(CO)cc2)cc1 = -0.743
COC(=O)C(CC#Cc1ccc2c(c1)[C@]1(C(=O)N2)[C@H](c2ccccc2OCCO)N2[C@H](c3ccccc3)[C@H](c3ccccc3)OC(=O)[C@H]2[C@@H]1C(=O)N1CCN(c2ncccn2)CC1)C(=O)OC = 0.891
CC(C)c1ccc(NN2C(C(O)C3CCCCC3)C=CC3C(=O)N(c4ccccc4)C(=O)C32)cc1 (stereo not drawn) = 0.794

[in] // query composite z-score value for entry COc1ccc([Si](C)(C)[C@@H]2[C@@H](CC(=O)N3Cc4ccccc4C[C@H]3CO)O[C@]3(C(=O)N(Cc4ccc(I)cc4)c4ccccc43)[C@H]2C)cc1
[out] 1.45

[in] Entry under review: CC[C@@H](O[Si](C#C[Si](C(C)C)(C(C)C)C(C)C)(C(C)C)C(C)C)c1cn([C@H](CO)Cc2ccccc2)nn1 . Reported composite z-score?
[out] 0.39

[in] Given the molecule C=CC[C@H](O)c1ccc(O)c2ccccc12 , what is its reported composite z-score?
[out] 1.34
